Type: in vivo, human
Conditions: human, plasma, oral, 300 mg
measured.attribute: AUC (ng·h/mL)
Give just the number in ng·h/mL; leave the unit off.

AUC lookup needed for `CCOc1cccnc1Oc1cncc(-c2ncc(C(=O)N[C@H]3CCOC3)cn2)c1` , thanks.
8720

###

System: CYP3A
Test: In vitro CYP3A induction in human hepatocytes
Format: in vitro ADME
measured.attribute: EC50

EC50 lookup needed for `CCOc1cccnc1Oc1cncc(-c2ncc(C(=O)N[C@H]3CCOC3)cn2)c1` , thanks.
21.4 to 37.2 µM

###

Format: in vivo, human
Conditions: human, plasma, oral, 15 mg
measured.attribute: AUC (ng·h/mL)
Give just the number in ng·h/mL; leave the unit off.

AUC lookup needed for COc1cc(C(=O)N2CCC3(CC2)CC(=O)c2c(cnn2C(C)C)C3)cc(-c2ccc(C(=O)O)cc2)n1 [clesacostat] , thanks.
12100

###

Type: in vivo, human
Conditions: ervogastat 300 mg + clesacostat 15 mg b.i.d., Day 14; geometric mean
measured.attribute: PTR (peak-to-trough ratio)
Provide a numeric answer; units are not to be included.

PTR (peak-to-trough ratio) lookup needed for `CCOc1cccnc1Oc1cncc(-c2ncc(C(=O)N[C@H]3CCOC3)cn2)c1` , thanks.
150

###

Format: in vivo, human
Details: human, plasma, oral, 300 mg
measured.attribute: Cmax (ng/mL)
Give just the number in ng/mL; leave the unit off.

Cmax lookup needed for CCOc1cccnc1Oc1cncc(-c2ncc(C(=O)N[C@H]3CCOC3)cn2)c1 [ervogastat] , thanks.
2390

###

Format: in vivo, human
Settings: ervogastat 300 mg b.i.d. alone, Day 7; geometric mean
measured.attribute: PTR (peak-to-trough ratio)
Provide a numeric answer; units are not to be included.

PTR (peak-to-trough ratio) lookup needed for `CCOc1cccnc1Oc1cncc(-c2ncc(C(=O)N[C@H]3CCOC3)cn2)c1` , thanks.
94.3
